Literature pIC50 values, system: Cytochrome P450 2C9 (Homo sapiens, UniProt P11712).
pIC50: −log10 of the molar value.

Query pIC50 on Cytochrome P450 2C9 (Homo sapiens, UniProt P11712) for Cc1cc(Cl)cc2c1O[C@H](C(C)C)C(=O)N2CCC(=O)O
< 4.30

Observed pIC50 on Cytochrome P450 2C9 (Homo sapiens, UniProt P11712) for C[C@H]1SC(N)=N[C@](C)(c2cccc(NC(=O)c3cnc(C(F)F)cn3)c2)[C@H]1F , please.
≤ 4.70

Missing value: pIC50, Cytochrome P450 2C9 (Homo sapiens, UniProt P11712), entry COc1ccc(Nc2ccc(C(=O)c3c[nH]c4ncnc(NCC5CCCO5)c34)c(F)n2)cn1 (stereo not shown) . Fill in?
< 5.00

Checklist item: pIC50 tested on Cytochrome P450 2C9 (Homo sapiens, UniProt P11712), entry Oc1c(Cl)cc(C(=S)N2CCOc3ccccc32)cc1Cl , value?
4.92

// lookup pIC50 | system=Cytochrome P450 2C9 (Homo sapiens, UniProt P11712) | key= CC(F)(F)[C@H]1OC(N)=N[C@](C)(c2cc(NC(=O)c3cnc(OCC(F)(F)F)cn3)ccc2F)[C@H]1F
≤ 5.00

Field: pIC50 (Cytochrome P450 2C9 (Homo sapiens, UniProt P11712)). Entry: N#Cc1cc(CNc2ccccc2C(=O)Nc2cc3ccccc3cn2)ccn1
5.92

I'm curious: which pIC50 was measured for C[C@@H](c1ccccc1-c1ccc(F)cc1)n1cncc1C(=O)N1CC[C@H]2NCCO[C@@H]2C1 tested on Cytochrome P450 2C9 (Homo sapiens, UniProt P11712)?
< 5.00

Lab note: need pIC50 for Cc1cccc2c1OC(C(C)C)CN2C(=O)/C=C/C(=O)O (stereo not shown) on Cytochrome P450 2C9 (Homo sapiens, UniProt P11712), anyone have it?
< 4.30

Give pIC50 (Cytochrome P450 2C9 (Homo sapiens, UniProt P11712)) of the following compound: COc1cnc(C(=O)Nc2ccc(F)c([C@]3(CF)C[C@@H](C(F)(F)F)OC(N)=N3)c2)cn1
< 4.30

Observed pIC50 on Cytochrome P450 2C9 (Homo sapiens, UniProt P11712) for COc1cc(Oc2ccc(/N=c3\[nH]c(=O)n(C[C@H](C)C(=O)O)c(=O)n3Cc3ccc(Cl)cc3)cc2)cc(F)n1 , please.
< 4.70

Param readout= pIC50; system= Cytochrome P450 2C9 (Homo sapiens, UniProt P11712); entry= C=CC(=O)Nc1cccc(-c2nc(Nc3cccc(N4CCOCC4)c3)nc3[nH]ncc23)c1 ; returns value.
5.66

Record lookup: for Cytochrome P450 2C9 (Homo sapiens, UniProt P11712), what pIC50 belongs to CN1CCc2cc(N3CCn4nc(NC(=O)c5cccnc5)cc43)ccc2C1=O ?
< 4.70

Lookup: pIC50 / Cytochrome P450 2C9 (Homo sapiens, UniProt P11712) / O=C(O)c1cccc2c1OCCN2C(=O)c1cc(Cl)c(O)c(Cl)c1
< 4.30

Lab note: need pIC50 for C[C@H](c1ccc(F)cc1)n1cncc1CN1CCN(S(=O)(=O)c2cnc(N3CCN4C[C@@H](CN)C[C@H]4C3)s2)CC1 on Cytochrome P450 2C9 (Homo sapiens, UniProt P11712), anyone have it?
5.57

Please state recorded pIC50 (tested on Cytochrome P450 2C9 (Homo sapiens, UniProt P11712)) of COc1ccc2c(c1OCc1ccccc1)C[C@@H](C(=O)O)N(C(=O)[C@@H](OC1CCCC1)c1ccccc1)C2
4.52

// lookup pIC50 | system=Cytochrome P450 2C9 (Homo sapiens, UniProt P11712) | key= O=C(c1cc(Cl)c(O)c(Cl)c1)N1CCNc2ccccc21
4.32
